tested on: Wolbachia pipientis; test: Anti-Wolbachia Cell-Based Screen; assay type: functional; set-up: scale not given: in the data most compounds retested in dose-response had high values; conditions: 5 µM
Out of some 48,000 compounds screened, about 13,000 (27%) showed an effect of 50% or more. The list shows a part of the results.
PARAMETER_MEASURED: Percent Effect (%)
Write down the numeric answer in % and omit the unit.

Cc1ncsc1CCN1CCC(N(C)Cc2ncc(C(C)C)o2)C1 (stereo unspecified) | -3.966
COc1ccc(C2CCCN2C(=O)c2ccc(=O)n(C)c2)cc1OC (stereo unspecified) | -4.846
CCN1CCC(CNC(=O)C(c2ccc(F)cc2)N(C)C)(N(C)C)CC1 (stereo unspecified) | -1.923
CN(CC(=O)NCC(F)(F)F)C(=O)c1ccc(C(=O)OC(C)(C)C)cc1 | 91.82
Cc1ccc(C(=O)N(C)CC(=O)NCC(F)(F)F)cn1 | 99.88
Cc1noc(C2CCN(C(=O)c3ccc(NC4CC4)nc3)CC2)n1 | -4.487
Cc1ccc(NC2CCN(C(=O)C(C(C)C)n3cncn3)CC2)nn1 (stereo unspecified) | 114.7
Cc1ccc(NC2CCN(C(=O)C(C)n3cncn3)CC2)nn1 (stereo unspecified) | 101.5

Query: Return reported Percent Effect. Input molecule: COc1cccc([C@H]2CN(C(=O)c3nnc4n3CCCC4)C[C@@H]2N)c1
Response: -27.9

Query: Return reported Percent Effect. Input molecule: CC(=O)N1CCC(c2cccc(NC3CCOCC3)n2)CC1
Response: 84.73

Query: Return reported Percent Effect. Input molecule: CC(=O)N1CCC(c2cnc(NC3CCOCC3)cn2)CC1
Response: 89.11

* * *

In this section, each of the molecules is paired with its reported Percent Effect.
system: Wolbachia pipientis; test: Anti-Wolbachia Cell-Based Screen; format: functional; set-up: scale not given: in the data most compounds retested in dose-response had high values; conditions: 5 µM
The whole screen tested about 48,000 compounds, of which about 13,000 (27%) showed an effect of 50% or more. Some of the results follow.
Write down the numeric answer in % and omit the unit.

Cc1ccnc(N2CCC(NCCOc3ccccc3)CC2)n1 | -3.135
CC(C(=O)NC1CC1)S(=O)(=O)Cc1csc(-c2cccs2)n1 (stereo not drawn) | -10.04
CC(C)Oc1cccc(C(=O)C2CCCN(S(=O)(=O)C(C)C)C2)c1 (stereo not drawn) | 1.86
COc1cccn(C(C)C(=O)NC2CCCC2)c1=O (stereo not drawn) | 10.4
CCS(=O)(=O)N1C[C@@H](OCc2cccnc2)[C@H]2OCCC[C@H]21.O=C(O)C(F)(F)F | -26.44

Query: Return reported Percent Effect. Input molecule: CC(C)(C)S(=O)(=O)CCNC1CSCCc2ccccc21 (stereo not drawn)
Response: 8.355

Query: Return reported Percent Effect. Input molecule: Cc1cc(NC(=O)Cn2cnc(-c3cccs3)cc2=O)sn1
Response: 24.65

Query: Return reported Percent Effect. Input molecule: Cc1nc(NCCSc2cnn[nH]2)c2cccnc2n1
Response: 2.11

Query: Return reported Percent Effect. Input molecule: O=C(c1scc2c1OCCO2)N1CCOC(CCc2ccccc2)C1 (stereo not drawn)
Response: -26.43

Query: Return reported Percent Effect. Input molecule: Cc1nnc2ccc(C(=O)N3CCSC(C)(C)C3)cn12
Response: -5.569

* * *

In this section, each of the molecules is paired with its reported Percent Effect.
tested on: Wolbachia pipientis; test: Anti-Wolbachia Cell-Based Screen; type: functional; design: scale not given: in the data most compounds retested in dose-response had high values; settings: 5 µM
The campaign covered roughly 48,000 compounds. About 13,000 (27%) showed an effect of 50% or more. Some of the results follow.
Write down the numeric answer in % and omit the unit.

O=C(NCCc1cccnc1)NCCc1cccs1 | -0.2291

Query: Return reported Percent Effect. Input molecule: O=C(CN1CCOC(CNc2cccnn2)C1)N1CCCCC1 (configuration not stated)
Response: 113.9

Query: Return reported Percent Effect. Input molecule: Cc1cc(SC(C)(C)C)ccc1NC(=O)CNC(N)=O
Response: -8.144

Query: Return reported Percent Effect. Input molecule: COc1ccc(-n2ccc(CNCc3cccc(OC)c3)n2)cc1
Response: -0.2636

Query: Return reported Percent Effect. Input molecule: COCC1CN(c2ccc3c(Cl)ccnc3c2F)CCO1 (configuration not stated)
Response: -23.97

Query: Return reported Percent Effect. Input molecule: O=C(CCN1CCOC(CNc2cccnn2)C1)NC1CCCCC1 (configuration not stated)
Response: 89.48

Query: Return reported Percent Effect. Input molecule: COc1cccc(CNCc2nc3ccccc3c(=O)[nH]2)c1
Response: 145

Query: Return reported Percent Effect. Input molecule: NCCO[C@H]1C[C@@H](O)C12CCN(C(=O)CCOc1ccccc1)CC2
Response: -12.3

Query: Return reported Percent Effect. Input molecule: Cl.c1cncc(CNCc2cccs2)c1
Response: 109.5

Query: Return reported Percent Effect. Input molecule: COc1ccccc1-c1ncc(CN2C[C@H](O)[C@@H](N3CCCC3)C2)s1
Response: 6.619

Query: Return reported Percent Effect. Input molecule: NC(=O)c1ccc(N2CCCCC2)c(NC(=O)c2ccc(Br)cc2)c1
Response: 7.886

Query: Return reported Percent Effect. Input molecule: Cc1nn(C)c(N(C)C)c1CNCc1cccnc1
Response: 7.028

* * *

test system: Wolbachia pipientis; test: Anti-Wolbachia Cell-Based Screen; format: functional; set-up: scale not given: in the data most compounds retested in dose-response had high values; settings: 5 µM
The campaign covered roughly 48,000 compounds. About 13,000 (27%) showed an effect of 50% or more. The list shows a part of the results.
In this section, each of the compounds is paired with its reported Percent Effect.
Write down the numeric answer in % and omit the unit.

Below, 8 compounds whose answers are already recorded.
COc1ccc(Cl)cc1CN(C)CC(=O)/N=c1\cc[nH]n1C(C)C1CC1 (stereo unspecified) | -13.95
Cc1nc(C(NC(=O)C2CCCC2)c2ccccc2F)no1 (stereo unspecified) | -17.79
CCN1C[C@@H]2CN(C(=O)c3cccn3C)C[C@@H]2C1=O | -32.3
CC(C)c1nc(-c2cc(C(=O)N3CCN(C)CC3)c3ccccn23)cs1.O=C(O)C(F)(F)F | -39.55
CN(C)C(=O)[C@H]1CC[C@@H]2[C@@H](CCN2C(=O)N(C)C)O1 | -14.11
O=C(NC1CC1)NC(c1cc(F)ccc1F)C1CC1 (stereo unspecified) | -0.2014
CNC(C(=O)OC)c1cc(F)ccc1F.Cl (stereo unspecified) | 100.3
Cc1cc(CN2CC[C@@H]3[C@@H](CCC(=O)N3CCc3c[nH]cn3)C2)oc1C | -14.05

Query: Return reported Percent Effect. Input compound: Cn1ccnc1-c1noc(NCc2ccccc2)n1
Response: -0.05664

Query: Return reported Percent Effect. Input compound: COCCN1C(=O)[C@H]2CC[C@@H]1CN(C(=O)Cc1ccc(O)c(Cl)c1)C2
Response: 12.68

Query: Return reported Percent Effect. Input compound: COC(=O)C(NC(=O)c1cc(F)cc(F)c1)c1cccnc1 (stereo unspecified)
Response: 7.008

Query: Return reported Percent Effect. Input compound: COc1ccc(CN(C)[C@@H]2CN(C(=O)c3ccnn3C)C[C@H]2O)cc1
Response: 97.48

Query: Return reported Percent Effect. Input compound: CC(=O)c1cccc(OCCCC(=O)NC(C#N)CC(C)C)c1 (stereo unspecified)
Response: -6.212

Query: Return reported Percent Effect. Input compound: CS(=O)(=O)CCCC(=O)Nc1cc(-c2cccc(F)c2F)n[nH]1
Response: 87.07

Query: Return reported Percent Effect. Input compound: COC(=O)C(NC(=O)C1CC1)c1cc(F)ccc1F (stereo unspecified)
Response: 87.91

Query: Return reported Percent Effect. Input compound: Cn1nccc1C(=O)N1CCOC(Cc2cccc(C(F)(F)F)c2)C1 (stereo unspecified)
Response: -3.764

* * *

In this section, each of the compounds is paired with its reported Percent Effect.
system: Wolbachia pipientis; assay: Anti-Wolbachia Cell-Based Screen; assay type: functional; set-up: scale not given: in the data most compounds retested in dose-response had high values; conditions: 5 µM
Out of some 48,000 compounds screened, about 13,000 (27%) showed an effect of 50% or more. The list shows a part of the results.
Write down the numeric answer in % and omit the unit.

Below, 5 compounds whose answers are already recorded.
N#Cc1ccccc1C(=O)N1CCC2(CC(=O)NC2=O)C1 (stereo unspecified) | -23.72
Cc1nc(CNc2nc(-c3ccco3)nc3c2CCNCC3)n[nH]1 | 7.543
Cc1noc(C)c1CN1CC[C@H]2OCC[C@@H](C(=O)N3CCCO3)[C@@H]2C1 | -14.86
CN(Cc1c(F)cccc1Cl)C(=O)CN(C)C1CCc2ccccc21 (stereo unspecified) | -6.423
CCOCc1nc2c(c(N(C)Cc3nonc3C)n1)CCNCC2 | 2.534

Query: Return reported Percent Effect. Input compound: CN(Cc1ccc2c(c1)OCO2)Cc1nc(-c2ccco2)no1
Response: 2.905

Query: Return reported Percent Effect. Input compound: NC(=O)N1CCCN(CC(=O)NCCc2c(F)cccc2F)CC1
Response: -7.896

Just for reference, ChEMBL document CHEMBL3988442 is where these values come from.
